This listing pairs binders with measured koff.
- target_or_test_system: T1, human factor X (human, UniProt P00742 41-179; P00742 183-488)
- T1 construct: Zymogen used as analyte in SPR; also called FX; Human FX (MW ~58 KDa)
- T1 sequence (P00742 41-179, chain 1 of 2): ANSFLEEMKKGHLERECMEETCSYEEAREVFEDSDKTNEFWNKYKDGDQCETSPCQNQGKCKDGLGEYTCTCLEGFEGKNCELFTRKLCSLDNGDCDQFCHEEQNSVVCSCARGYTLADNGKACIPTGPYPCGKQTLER
- T1 sequence (P00742 183-488, chain 2 of 2): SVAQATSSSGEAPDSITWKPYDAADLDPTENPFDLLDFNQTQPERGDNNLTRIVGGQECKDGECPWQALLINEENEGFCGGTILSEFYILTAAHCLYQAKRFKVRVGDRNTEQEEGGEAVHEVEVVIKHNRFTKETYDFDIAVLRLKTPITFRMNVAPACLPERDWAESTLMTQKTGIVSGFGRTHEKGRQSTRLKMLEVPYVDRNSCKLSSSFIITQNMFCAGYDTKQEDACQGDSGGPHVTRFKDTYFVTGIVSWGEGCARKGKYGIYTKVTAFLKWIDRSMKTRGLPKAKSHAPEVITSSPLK
- experimental_details: SPR, IgG captured on anti-human IgG Fc, human FX as analyte
Expressed in s⁻¹, but write only the number.

TINA-0209.0128 (antibody, V domains shown, Monospecific IgG4PE) VH: QVQLVQSGAEVQKPGASVKVSCKASRYSFTSYYLHWVRQAPGQGLEWMGIINPKTGDTSYAQKFQGRVTMTRDTSTTTVYMELSSLRSEDTAVYYCARDGYGSSARCLQLWGQGTLVTVSS VL: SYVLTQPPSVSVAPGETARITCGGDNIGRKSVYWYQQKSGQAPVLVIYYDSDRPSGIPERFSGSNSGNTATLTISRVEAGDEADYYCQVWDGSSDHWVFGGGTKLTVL :: 0.0679

**Query** // lookup koff for TINA-0214.0128 (antibody, V domains shown, Monospecific IgG4PE) VH: QVQLVQSGAEVKKTGASVKVSCQASRYSFTSYYMHWVRQAPGQGLEWMGIINPKSGSTSYAQKFQGRVTMTRDTSTSTVYMELSSLRSEDTAVYYCARDGYGSSSRCLQLWGQGTLVTVSS VL: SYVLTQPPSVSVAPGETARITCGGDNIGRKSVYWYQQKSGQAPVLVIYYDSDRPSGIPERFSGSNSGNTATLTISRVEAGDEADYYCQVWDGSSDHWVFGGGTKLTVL
**Result** 0.0558
